# System: Mouse AhR (Mus musculus, UniProt P30561)
# Method description: Transactivation assay in mouse cell line (in vitro assay 2: antagonism)
# Assay conditions: Hepa 1c1c7 cells, AHR inducible (DRE) firefly luciferase reporter, 200 μM kynurenic acid, 20 hours
Measured endpoint: pIC50
One number for each entry, as −log10 of the molar value.

Worked cases, pIC50 given:
{"columns": ["Compound", "pIC50"],
 "data": [
  ["Cn1cc(-c2nc(C(=O)N[C@H]3COC[C@H]3O)cc(-c3ccc(OC(F)(F)F)cc3)n2)cn1 [Example 103]", 8.24],
  ["Cn1cc(-c2nc(C(=O)NC(CO)(CO)C(F)(F)F)cc(-c3ccc(OC(F)(F)F)cc3)n2)cn1 [Example 89]", 8.36]
]}

For the 3 compounds below, give their pIC50 values.
1. Cn1cc(-c2nc(C(=O)NC3CCCC(F)(F)C3O)cc(-c3ccc(OC(F)(F)F)cc3)n2)cn1 (stereo not shown) [Example 106]
2. COc1ccncc1-c1nc(C(=O)NCC(C)(C)O)cc(-c2ccc(Cl)cc2)n1 [Example 61]
3. C[C@@H](CO)NC(=O)c1cc(-c2ccc(OC(F)(F)F)cc2)nc(-c2ccc(C#N)s2)n1 [Example 28]

Out:
7.70
8.32
6.64

Hi, could you look up pIC50 for each item in my list?
1. C[C@@H](CO)NC(=O)c1cc(-c2ccc(Cl)cc2)nc(-c2cncnc2)n1 [Example 75]
2. CC(C)(O)CNC(=O)c1cc(-c2ccc(Cl)cc2)nc(-c2cnn(C3CC3)c2)n1 [Example 68]
3. Cc1[nH]ncc1-c1nc(C(=O)NCC(C)(C)O)cc(-c2ccc(OC(F)(F)F)cc2)n1 [Example 24]
4. Cc1nn(C)cc1-c1nc(C(=O)NCC(C)(C)O)cc(-c2ccc(OC(F)(F)F)cc2)n1 [Example 25]
5. Cn1cc(-c2nc(C(=O)NCC(C)(C)O)cc(-c3ccc(OC(F)(F)F)cc3)n2)cn1 [Example 6]
6. CC(NC(=O)c1cc(-c2ccc(OC(F)(F)F)cc2)nc(-c2cnn(C)c2)n1)C(O)CO (stereo not shown) [Example 104]
7. O=C(N[C@H]1COC[C@@H]1O)c1cc(-c2ccc(OC(F)(F)F)cc2)nc(-c2cccnc2)n1 [Example 118]
8. Cc1ccsc1-c1nc(C(=O)N[C@@H](C)CO)cc(-c2ccc(Cl)cc2)n1 [Example 73]

Out:
1: 7.67; 2: 5.01; 3: 6.44; 4: 6.96; 5: 7.82; 6: 7.69; 7: 8.47; 8: 7.54

State the recorded pIC50 for every item in the following list.
1. C[C@@H](CO)NC(=O)c1cc(-c2ccc(OC(F)(F)F)cc2)nc(-c2cc[nH]n2)n1 [Example 37]
2. Cc1ncc(-c2nc(C(=O)NCC(C)(C)O)cc(-c3ccc(OC(F)(F)F)cc3)n2)cn1 [Example 21]
3. COc1ccncc1-c1nc(C(=O)N[C@@H](C)CO)cc(-c2ccc(Cl)cc2)n1 [Example 80]
4. C[C@@H](CO)NC(=O)c1cc(-c2ccc(OC(F)(F)F)cc2)nc(-c2cccnc2)n1 [Example 1]
5. Cn1cc(-c2nc(C(=O)NCC(C)(C)O)cc(-c3ccc(C(F)(F)F)cc3)n2)cn1 [Example 8]

Out:
1. 7.03
2. 5.67
3. 7.51
4. 8.69
5. 8.14

----------
# System: UniProtKB P30561
# Method description: Transactivation assay in mouse cell line (in vitro assay 2: antagonism)
# Assay conditions: Hepa 1c1c7 cells, AHR inducible (DRE) firefly luciferase reporter, 200 μM kynurenic acid, 20 hours
Measured endpoint: IC50 (nM)
One number for each entry, in nM.

Some molecules with recorded IC50:
{"columns": ["Molecule", "System", "IC50 / nM"],
 "data": [
  ["CC(C)(O)CNC(=O)c1cc(-c2ccc(OC(F)(F)F)cc2)nc(-c2cn[nH]c2)n1 [Example 20]", "UniProtKB P30561", 354],
  ["Cc1ccc(-c2nc(C(=O)N[C@@H](C)CO)cc(-c3ccc(Cl)cc3)n2)cn1 [Example 79]", "UniProtKB P30561", 671],
  ["Cn1cc(-c2nc(C(=O)N[C@H](CO)C(C)(C)C)cc(-c3ccc(OC(F)(F)F)cc3)n2)cn1 [Example 88]", "UniProtKB P30561", 8.19],
  ["C[C@@H](CO)NC(=O)c1cc(-c2ccc(OC(F)(F)F)cc2)nc(-c2cnn(C)c2)n1 [Example 5]", "UniProtKB P30561", 2.92],
  ["C[C@H](CO)NC(=O)c1cc(-c2ccc(Cl)cc2)nc(-c2cnn(C)c2)n1 [Example 12]", "UniProtKB P30561", 206]
]}

# batch: return IC50 for each of the 3 molecules below
1. C[C@@H](CO)NC(=O)c1cc(-c2ccc(Cl)cc2)nc(-c2ccc(C#N)s2)n1 [Example 70]
2. CC(C)(O)CNC(=O)c1cc(-c2ccc(Cl)cc2)nc(-c2cncnc2)n1 [Example 55]
3. C[C@@H](CO)NC(=O)c1cc(-c2ccc(Cl)cc2)nc(-c2cnn(C3CC3)c2)n1 [Example 85]

Out:
[295, 17.3, 7400]

----------
# System: Human AhR (Homo sapiens)
# Sequence (P35869 11-848): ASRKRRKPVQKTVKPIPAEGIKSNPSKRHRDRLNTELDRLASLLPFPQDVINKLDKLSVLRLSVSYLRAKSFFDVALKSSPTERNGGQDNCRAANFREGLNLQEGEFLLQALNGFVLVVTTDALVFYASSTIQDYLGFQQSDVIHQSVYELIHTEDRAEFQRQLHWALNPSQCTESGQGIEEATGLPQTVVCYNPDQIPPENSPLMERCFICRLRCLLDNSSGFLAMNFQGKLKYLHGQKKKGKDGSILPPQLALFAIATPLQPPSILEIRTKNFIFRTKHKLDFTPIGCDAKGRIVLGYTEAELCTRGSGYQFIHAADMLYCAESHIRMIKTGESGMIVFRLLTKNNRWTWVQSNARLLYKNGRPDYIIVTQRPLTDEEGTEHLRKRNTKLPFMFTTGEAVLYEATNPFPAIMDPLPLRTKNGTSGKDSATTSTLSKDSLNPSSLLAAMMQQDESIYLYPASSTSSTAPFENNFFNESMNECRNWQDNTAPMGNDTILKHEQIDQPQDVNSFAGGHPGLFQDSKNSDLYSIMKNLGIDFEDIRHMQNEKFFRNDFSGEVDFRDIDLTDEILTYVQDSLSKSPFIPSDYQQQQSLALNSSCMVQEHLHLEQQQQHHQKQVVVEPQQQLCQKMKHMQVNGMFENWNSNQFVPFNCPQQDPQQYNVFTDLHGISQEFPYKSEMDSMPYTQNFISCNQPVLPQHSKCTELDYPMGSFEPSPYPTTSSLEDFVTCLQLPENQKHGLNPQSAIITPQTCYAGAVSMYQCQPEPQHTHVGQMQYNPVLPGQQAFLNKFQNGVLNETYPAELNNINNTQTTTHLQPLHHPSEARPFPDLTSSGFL
# Method description: Transactivation assay in human cell line (in vitro assay 1: antagonism)
# Assay conditions: U87 glioblastoma cells, AHR inducible (DRE) firefly luciferase reporter, 150 μM kynurenic acid, 20 hours
Consider the following compounds; for each one, report its IC50.

The cases that follow already have their IC50 on record.
{"columns": ["Compound", "IC50"],
 "data": [
  ["Cc1nn(C)cc1-c1nc(C(=O)N[C@@H](C)CO)cc(-c2ccc(Cl)cc2)n1", "54.2 nM"],
  ["Cn1cc(-c2nc(C(=O)N[C@@H]3COC[C@@H]3O)cc(-c3ccc(OC(F)(F)F)cc3)n2)cn1 (relative stereo)", "8.48 nM"],
  ["C[C@@H](CO)NC(=O)c1cc(-c2ccc(Cl)cc2)nc(-c2cccnc2)n1", "1.1 nM"],
  ["C[C@@H](CO)NC(=O)c1cc(-c2ccc(OC(F)(F)F)cc2)nc(-c2ccc(Cl)s2)n1", "46.2 nM"],
  ["C[C@@H](CO)NC(=O)c1cc(-c2ccc(OC(F)(F)F)cc2)nc(-c2cnn(C3CC3)c2)n1", "972 nM"],
  ["CC(C)Cn1cc(-c2nc(C(=O)N[C@@H](C)CO)cc(-c3ccc(OC(F)(F)F)cc3)n2)cn1", "5220 nM"],
  ["Cn1cc(-c2nc(C(=O)N[C@H]3COC[C@H]3O)cc(-c3ccc(OC(F)(F)F)cc3)n2)cn1", "6.74 nM"],
  ["O=C(N[C@H]1COC[C@@H]1O)c1cc(-c2ccc(OC(F)(F)F)cc2)nc(-c2cccnc2)n1", "2.34 nM"]
]}

Please go through the list and note IC50 for each compound.
1. Cn1cc(-c2nc(C(=O)N[C@H](CO)CF)cc(-c3ccc(OC(F)(F)F)cc3)n2)cn1
2. Cc1ccc(-c2nc(C(=O)N[C@@H](C)CO)cc(-c3ccc(Cl)cc3)n2)cn1
3. Cn1cc(-c2nc(C(=O)N[C@@H]3CCC[C@H]3O)cc(-c3ccc(OC(F)(F)F)cc3)n2)cn1 (stereo in doubt)
4. C[C@@H](CO)NC(=O)c1cc(-c2ccc(Cl)cc2)nc(-c2cn[nH]c2)n1
5. C[C@@H](CO)NC(=O)c1cc(-c2ccc(C(F)(F)F)cc2)nc(-c2cccnc2)n1
6. Cc1cscc1-c1nc(C(=O)N[C@@H](C)CO)cc(-c2ccc(Cl)cc2)n1
7. C[C@@H](CO)NC(=O)c1cc(-c2ccc(Cl)cc2)nc(-c2cnc(Cl)nc2)n1
8. COc1ccc(-c2nc(C(=O)N[C@@H](C)CO)cc(-c3ccc(OC(F)(F)F)cc3)n2)cn1

Out:
3.48 nM
108 nM
53.2 nM
1040 nM
1.26 nM
3.23 nM
17600 nM
438 nM

# batch size: 4; output IC50 per entry
1. Cn1cc(-c2nc(C(=O)N[C@H](CO)C3CC3)cc(-c3ccc(OC(F)(F)F)cc3)n2)cn1
2. Cn1cc(-c2nc(C(=O)NCC(C)(C)O)cc(-c3ccc(C(F)(F)F)cc3)n2)cn1
3. Cc1ncc(-c2nc(C(=O)N[C@@H](C)CO)cc(-c3ccc(OC(F)(F)F)cc3)n2)cn1
4. COc1ccncc1-c1nc(C(=O)N[C@@H](C)CO)cc(-c2ccc(Cl)cc2)n1

Out:
17.6 nM
2.57 nM
120 nM
2.64 nM

# batch: return IC50 for each of the 2 compounds below
1. C[C@@H](CO)NC(=O)c1cc(-c2ccc(OC(F)(F)F)cc2)nc(-c2ccsc2)n1
2. CC(C)(O)CNC(=O)c1cc(-c2ccc(OC(F)(F)F)cc2)nc(-c2cnc(C#N)nc2)n1

Out:
1. 14.5 nM
2. > 20000 nM

Values from patent US11304946B2
